Mean % WT Binding reference
testedTarget: human CD33 H339A (human, UniProt P20138 18-364)
Sequence (P20138 18-364 H339A limits assumed): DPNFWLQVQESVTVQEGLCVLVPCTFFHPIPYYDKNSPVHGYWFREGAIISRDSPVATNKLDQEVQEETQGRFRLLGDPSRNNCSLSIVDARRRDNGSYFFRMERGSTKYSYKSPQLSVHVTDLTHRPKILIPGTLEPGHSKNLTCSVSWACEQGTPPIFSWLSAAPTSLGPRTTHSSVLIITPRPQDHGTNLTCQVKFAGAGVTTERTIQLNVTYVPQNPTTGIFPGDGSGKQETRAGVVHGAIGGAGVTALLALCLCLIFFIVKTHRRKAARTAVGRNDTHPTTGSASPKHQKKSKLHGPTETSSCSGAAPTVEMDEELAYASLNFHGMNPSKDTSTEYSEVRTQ
experiment: flow cytometry, alanine scan

binder	Mean % WT Binding
Refmab #1 (antibody, V domains shown, The alanine scan used IgG or Fab; also called hP67.6) VH: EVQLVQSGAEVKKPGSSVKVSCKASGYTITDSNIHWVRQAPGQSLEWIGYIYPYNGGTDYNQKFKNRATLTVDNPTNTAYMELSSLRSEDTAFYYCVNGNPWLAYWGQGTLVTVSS VL: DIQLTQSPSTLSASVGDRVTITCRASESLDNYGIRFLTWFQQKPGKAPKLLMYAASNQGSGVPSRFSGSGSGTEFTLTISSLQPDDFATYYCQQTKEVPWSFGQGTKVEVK	76.7 % of WT
Refmab #2 (antibody, V domains shown, The alanine scan used IgG or Fab) VH: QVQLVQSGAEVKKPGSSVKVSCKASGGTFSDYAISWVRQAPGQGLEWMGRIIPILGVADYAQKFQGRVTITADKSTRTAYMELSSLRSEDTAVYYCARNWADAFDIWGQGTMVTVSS VL: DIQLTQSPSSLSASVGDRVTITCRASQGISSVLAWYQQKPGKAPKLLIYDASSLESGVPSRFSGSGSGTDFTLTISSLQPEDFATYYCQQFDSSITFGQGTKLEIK	99.5 % of WT
Refmab #4 (antibody, V domains shown, The alanine scan used IgG or Fab) VH: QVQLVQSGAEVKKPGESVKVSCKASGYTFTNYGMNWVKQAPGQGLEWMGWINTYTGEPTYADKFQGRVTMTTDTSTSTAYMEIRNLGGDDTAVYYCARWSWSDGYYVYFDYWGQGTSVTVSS VL: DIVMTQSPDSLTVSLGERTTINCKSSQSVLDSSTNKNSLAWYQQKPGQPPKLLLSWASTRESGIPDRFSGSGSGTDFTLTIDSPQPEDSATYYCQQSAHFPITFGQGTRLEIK	82 % of WT
Refmab #3 (antibody, V domains shown, The alanine scan used IgG or Fab) VH: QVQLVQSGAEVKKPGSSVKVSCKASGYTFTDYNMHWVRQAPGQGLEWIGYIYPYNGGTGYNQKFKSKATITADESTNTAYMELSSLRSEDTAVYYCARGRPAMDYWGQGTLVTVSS VL: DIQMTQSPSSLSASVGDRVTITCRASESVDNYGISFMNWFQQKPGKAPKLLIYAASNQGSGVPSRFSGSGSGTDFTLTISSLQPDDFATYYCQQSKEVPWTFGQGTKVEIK	83.5 % of WT
